measurement description: RP, Waters CORTECS T3, 100 × 2.1 mm, 2.7 µm, 0.3 mL/min, estimated dead time 0.73 min; A: water + 0.1% formic acid, pH 3; B: methanol + 0.1% formic acid, pH 3; gradient (min/%B) 0/0 1/0 6/5 30/100 35/100 35.1/0 40/0
condition summary: stereoisomer not certain
endpoint: log10 of LC retention time (log10 of the value in min)
Values are log10 of LC retention time in min.

Example results:
CCCCCCCCC=CCCCCCCCC(=O)OCC(O)CO (racemic) [1-OLEOYL-RAC-GLYCEROL]    1.46
Cn1cnc2c(ncn2C2OC(CO)C(O)C2O)c1=N (centres undefined) [1-METHYLADENOSINE]    0.91
CC(=O)NCCc1c[nH]c2ccc(O)cc12 [N-ACETYLSEROTONIN]    1.03
CCCCCCCCCC(=O)OCC(COP(=O)([O-])OCC[N+](C)(C)C)OC(=O)CCCCCCCCC (centres undefined) [1,2-DIDECANOYL-SN-GLYCERO-3-PHOSPHOCHOLINE]    1.46
CC(=O)OCC(=O)C1CCC2C3CCC4=CC(=O)CCC4(C)C3CCC12C (centres undefined) [DEOXYCORTICOSTERONE ACETATE]    1.38
Cn1c(=O)c2c(ncn2C)n(C)c1=O [CAFFEINE]    1.07
O=C(O)c1ccc(=O)[nH]c1 [6-HYDROXYNICOTINATE]    0.54
N[C@@H](CCOC(=O)CCC(=O)O)C(=O)O [O-SUCCINYL-L-HOMOSERINE]    -0.04

stdin: Look at this compound and give its reported log10 of LC retention time. CCCCCCCCCCCC(=O)OC(CC(=O)[O-])C[N+](C)(C)C (centres undefined) [LAUROYLCARNITINE]
stdout: 1.37

stdin: Query CCOC(=O)Cc1c[nH]c2ccccc12 [ETHYL 3-INDOLEACETATE] next
stdout: 1.29

These measurements were taken from the RepoRT retention time repository (doi:10.1016/j.jchromb.2020.122105).
